Sourced from PubChem BioAssay AID1159580

# test name: chemical genetic growth profiling, strain panel (AID 1159580);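 also: tested at 20 µM; growth read once vehicle control cultures reached saturation at 30 °C; 1 = growth at the plate median or of vehicle wells; lower values mean less growth of the strain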
# study conditions: S. cerevisiae deletion strains, growth OD, locus YCL061C, strain MRC1
In all, about 5,500 compounds went through this assay and about 2,000 (36%) were called active. Roughly 18% stayed inconclusive and do not appear here. Rule as the data show it: active = normalized growth mostly below about 0.91 (no sharp cut-off); inconclusive = no clear call, values can overlap the other calls; inactive = mostly above about 0.92. This is one part of the list.
# output must be one of 1.0 for active, 0.0 for inactive

What outcome does the record of this test show for "CN(C)C=Nc1nnc(Sc2ncccc2[N+](=O)[O-])s1" ?
0.0

What outcome does the record of this test show for CC1(C)CCCC2(C)C3C1[C@@H](O)C2(C)C[C@H]3O (some centres undefined) ?
0.0

What outcome does the record of this test show for "Oc1c(I)cc(I)c2cccnc12" ?
1.0

Alright, here's another compound for you.
What outcome does the record of this test show for "Cc1onc(NC(=O)NC(=O)c2c(F)cccc2Cl)c1Br" ?
0.0

----------
# test name: chemical genetic growth profiling, strain panel (AID 1159580);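 also: tested at 20 µM; growth read once vehicle control cultures reached saturation at 30 °C; 1 = growth at the plate median or of vehicle wells; lower values mean less growth of the strain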
# study conditions: S. cerevisiae deletion strains, growth OD, locus YLR320W, strain mms22, hits give low values
Out of some 5,500 compounds screened, about 2,000 (36%) were called active. Inconclusive results (about 18%) are left out. The list shows a part of the results.
quantity: normalized growth
Kindly provide the number alone.

"Cc1c(Nc2ncccc2C(=O)O)cccc1C(F)(F)F" has a reported normalized growth of 1.01

Further cases:
"N[C@@H](Cc1ccc(O)c(O)c1)C(=O)O" has a reported normalized growth of 1.01

"C[C@H](N)[C@H](O)c1ccc(O)c(O)c1" has a reported normalized growth of 1.01

NC(=NCCC[C@H](N)C(=O)O)NC(CCC(=O)O)C(=O)O (stereo partly specified) has a reported normalized growth of 1.02

"O=C(O)c1ccccc1Nc1ccccc1" has a reported normalized growth of 0.99

"COC(C)(C)CCC[C@H](C)C/C=C/C(C)=C/C(=O)OC(C)C" has a reported normalized growth of 0.992

----------
# test name: chemical genetic growth profiling, strain panel (AID 1159580);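 also: tested at 20 µM; growth read once vehicle control cultures reached saturation at 30 °C; 1 = growth at the plate median or of vehicle wells; lower values mean less growth of the strain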
# study conditions: S. cerevisiae deletion strains, growth OD, locus YPL241C, strain CIN2, hits give low values
Among all 5,500 compounds or so, about 2,000 (36%) were called active. About 18% were inconclusive and are not listed. This is one part of the list.
quantity: normalized growth

"CCCCCCNC(=O)NCCCCCC" has a reported normalized growth of 0.982 (inactive)

CC1(C)CC2C1(O)CCC1(C)C=CC(O)C21CO (centres undefined) has a reported normalized growth of 0.991 (inactive)

"C[n+]1cccc(C(=O)[O-])c1" has a reported normalized growth of 1 (inactive)

"CNc1ncnc2c1ncn2[C@H]1C[C@H](OP(=O)(O)O)[C@@H](COP(=O)(O)O)O1" has a reported normalized growth of 1 (inactive)

Further cases:
"C[C@H](N)[C@H](O)c1ccc(O)c(O)c1" has a reported normalized growth of 1 (inactive)

"COc1ccc2c(c1)[C@@]13CCCC[C@H]1[C@@H](C2)NCC3" has a reported normalized growth of 1 (inactive)

"CC(=O)Nc1ccc(S(=O)(=O)Nc2ccc([N+](=O)[O-])cc2)cc1" has a reported normalized growth of 1.01 (inactive)

"CSC(N)=NCCC[C@H](N)C(=O)O" has a reported normalized growth of 1.01 (inactive)

"CSC1=NCN(Cc2ccccc2)CN1" has a reported normalized growth of 0.987 (inactive)
